Values of IC50 reported for MMP-3 (Homo sapiens) appear below.
measured.metric: IC50

molecule="O=C(c1ccc(-c2ccc(Cl)cc2)cc1)C1CCC(CSC(=S)N2CCCC2)C1C(=O)O (stereo not shown) [Example 3]" value_measured="31 nM"
molecule="O=C(CC(CCn1ncc2ccccc2c1=O)C(=O)O)c1ccc(-c2ccc(Cl)cc2)cc1 (stereo not shown) [Example 18]" value_measured="59 nM"
molecule="O=C(c1ccc(-c2ccc(Cl)cc2)cc1)C1CCC(Cn2c(=O)oc3ccccc32)C1C(=O)O (stereo not shown) [Example 6]" value_measured="4.1 nM"
molecule="O=C(c1ccc(-c2ccc(Cl)cc2)cc1)C1CCC(Cn2ncc3ccccc3c2=O)C1C(=O)O (stereo not shown) [Example 5]" value_measured="4.2 nM"
